Provide the recorded Hemolytic Activity (% Hemolysis) for the entries that follow.
Tested on: Human red blood cells (hRBCs)
Assay: Hemolysis assay using whole human blood
Format: cell-based
Settings: 12.5 μM; hRBCs, 15 min at 37° C.; relative to 1.0% triton X-100
Numbered stars: 1 amine (or outer) side, 2 acyl side, 3 side chain; on linkers, the order of the positions; unused ones are H or OH. Square brackets hold non-standard residues; d marks the D form. Peptide text beside a SMILES is read from it. X1 = NN([C@H](Cc1ccccc1)C(=O)[*:2])[*:1]; Orn(Nα-NH2) = NCCC[C@H](NN)C(=O)O
Reply with just the number (in %).

Hemolytic Activity (% Hemolysis) of CC(C)C[C@@H]1NC(=O)[C@H](CCCN)NC(=O)[C@H](C(C)C)NC(=O)[C@@H]2CCCN2C(=O)[C@@H](Cc2ccccc2)N(N)C(=O)[C@H](CC(C)C)NC(=O)[C@H](CCCN)NC(=O)[C@H](C(C)C)NC(=O)[C@@H]2CCCN2C(=O)[C@@H](Cc2ccccc2)NC1=O [Compound 1] (HELM PEPTIDE1{L.[dF].P.V.[Orn].L.[NN([C@H](Cc1ccccc1)C(=O)[*:2])[*:1]].P.V.[Orn]}$PEPTIDE1,PEPTIDE1,1:R1-10:R2$$$V2.0) on Human red blood cells (hRBCs)?
0.00

Hemolytic Activity (% Hemolysis) of CC(C)C[C@@H]1NC(=O)[C@H](CCCN)N(N)C(=O)[C@H](C(C)C)NC(=O)[C@@H]2CCCN2C(=O)[C@@H](Cc2ccccc2)N(N)C(=O)[C@H](CC(C)C)NC(=O)[C@H](CCCN)N(N)C(=O)[C@H](C(C)C)NC(=O)[C@@H]2CCCN2C(=O)[C@@H](Cc2ccccc2)N(N)C1=O [Compound 9] (cyclo(L[X1]PV[Orn(Nα-NH2)]L[X1]PV[Orn(Nα-NH2)])) on Human red blood cells (hRBCs)?
2.75

Hemolytic Activity (% Hemolysis) of CC(C)C[C@@H]1NC(=O)[C@H](CCCN)NC(=O)[C@H](C(C)C)NC(=O)[C@@H]2CCCN2C(=O)[C@@H](Cc2ccccc2)N(N)C(=O)[C@H](CC(C)C)NC(=O)[C@H](CCCN)NC(=O)[C@H](C(C)C)NC(=O)[C@@H]2CCCN2C(=O)[C@@H](Cc2ccccc2)N(N)C1=O [Compound 2] (HELM PEPTIDE1{L.[NN([C@H](Cc1ccccc1)C(=O)[*:2])[*:1]].P.V.[Orn].L.[NN([C@H](Cc1ccccc1)C(=O)[*:2])[*:1]].P.V.[Orn]}$PEPTIDE1,PEPTIDE1,1:R1-10:R2$$$V2.0) on Human red blood cells (hRBCs)?
0.00

Hemolytic Activity (% Hemolysis) of CC(C)C[C@@H]1NC(=O)[C@H](CCCN)NC(=O)[C@H](C(C)C)NC(=O)[C@@H]2CCCN2C(=O)[C@@H](Cc2ccccc2)NC(=O)[C@H](CC(C)C)NC(=O)[C@H](CCCN)N(N)C(=O)[C@H](C(C)C)NC(=O)[C@@H]2CCCN2C(=O)[C@@H](Cc2ccccc2)NC1=O [Compound 3] (HELM PEPTIDE1{L.[dF].P.V.[Orn].L.[dF].P.V.[NCCC[C@@H](C(=O)[*:2])N(N)[*:1]]}$PEPTIDE1,PEPTIDE1,1:R1-10:R2$$$V2.0) on Human red blood cells (hRBCs)?
0.00

Hemolytic Activity (% Hemolysis) of CC(C)C[C@@H]1NC(=O)[C@H](CCCN)NC(=O)[C@H](C(C)C)NC(=O)[C@@H]2CCCN2C(=O)[C@@H](Cc2ccccc2)N(N)C(=O)[C@H](CC(C)C)NC(=O)[C@H](CCCN)N(N)C(=O)[C@H](C(C)C)NC(=O)[C@@H]2CCCN2C(=O)[C@@H](Cc2ccccc2)NC1=O [Compound 6] (HELM PEPTIDE1{L.[dF].P.V.[NCCC[C@@H](C(=O)[*:2])N(N)[*:1]].L.[NN([C@H](Cc1ccccc1)C(=O)[*:2])[*:1]].P.V.[Orn]}$PEPTIDE1,PEPTIDE1,1:R1-10:R2$$$V2.0) on Human red blood cells (hRBCs)?
0.00
